- System: Escherichia coli TOP10;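 further: peptides expressed intracellularly from a pBAD plasmid library in pooled LB shake-flask culture, induced with 0.3% L-arabinose, DNA abundance read by NGS, three biological replicates, DESeq2 with apeglm shrinkage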
- protocol notes: shrunken log2 fold change of peptide-encoding DNA abundance (4.5 h post-induction vs induction); higher = less antimicrobial activity (less host growth inhibition)
- condition notes: time post-induction: 4.5 h; library: site-saturation at positions 5, 18, 19, 20
Assign rule met to entries whose shrunken log2 fold change meets or exceeds 0.01; assign rule not met to the rest.

Say whether `RRIRNRPPRLPRPRPRPKSQPRP` shows shrunken log2 fold change of 0.01 or more.
rule met

Say whether `RRIRHRPPRLPRPRPRPCDEPRP` shows shrunken log2 fold change of 0.01 or more.
rule not met

Say whether `RRIRNRPPRLPRPRPRPKCAPRP` shows shrunken log2 fold change of 0.01 or more.
rule met

Say whether `RRIRERPPRLPRPRPRPTGDPRP` shows shrunken log2 fold change of 0.01 or more.
rule met

Say whether `RRIRTRPPRLPRPRPRPLCDPRP` shows shrunken log2 fold change of 0.01 or more.
rule not met

Say whether `RRIRHRPPRLPRPRPRPDKMPRP` shows shrunken log2 fold change of 0.01 or more.
rule not met

Say whether `RRIRCRPPRLPRPRPRPQQFPRP` shows shrunken log2 fold change of 0.01 or more.
rule not met

Say whether `RRIRSRPPRLPRPRPRPVDGPRP` shows shrunken log2 fold change of 0.01 or more.
rule met

Say whether `RRIRKRPPRLPRPRPRPFVIPRP` shows shrunken log2 fold change of 0.01 or more.
rule not met

Say whether `RRIRFRPPRLPRPRPRPARKPRP` shows shrunken log2 fold change of 0.01 or more.
rule met

Say whether `RRIRARPPRLPRPRPRPLMEPRP` shows shrunken log2 fold change of 0.01 or more.
rule met

Say whether `RRIRKRPPRLPRPRPRPYWIPRP` shows shrunken log2 fold change of 0.01 or more.
rule not met

Say whether `RRIRNRPPRLPRPRPRPQVPPRP` shows shrunken log2 fold change of 0.01 or more.
rule met

Say whether `RRIRRRPPRLPRPRPRPEKRPRP` shows shrunken log2 fold change of 0.01 or more.
rule met

Say whether `RRIRMRPPRLPRPRPRPDTRPRP` shows shrunken log2 fold change of 0.01 or more.
rule not met
